Kindly supply the reported IC50 values for the records listed here.
# Tested on: Colo205 tumor cells
# TEST_PROTOCOL: Method C: Cell Growth Inhibition Assay (CellTiter-Glo), Colo205
# Type: cell-based
# EXPERIMENTAL_CONTEXT: Homo sapiens, COLO 205, 72 h, 3 days, 4-parameter fit

Need IC50, item `CC(C)(C)c1nc(-c2cccc(NC(=O)c3c(F)cccc3F)c2)c(-c2ccnc(Nc3cccc(CN4CCCC4)c3)n2)s1`
> 1000 nM

Quick check: IC50 of `CCc1nc(-c2cccc(NC(=O)c3c(F)cccc3F)c2)c(-c2ccnc(Nc3ccc(OCCN4CCCC4)c(Cl)c3)n2)s1` ?
> 1000 nM

Using the record for `Nc1nc(-c2cccc(NC(=O)c3c(F)cccc3F)c2)c(-c2ccnc(Nc3cccc(CN4CCCC4)c3)n2)s1` , report its IC50.
100 to 1000 nM

What value of IC50 has been reported for the following compound? `CN1CCC(c2nc(-c3cccc(NC(=O)c4c(F)cccc4F)c3)c(-c3ccnc(Nc4ccc5c(c4)CN(C)CC5)n3)s2)CC1`
100 to 1000 nM

Please look up its IC50: `CC(C)c1nc(-c2cccc(NC(=O)c3c(F)cccc3F)c2)c(-c2ccnc(Nc3ccc(OCCN4CCCC4)c(Cl)c3)n2)s1`
100 to 1000 nM

Give the measured IC50 of `CN(C)CCOc1ccc(Nc2nccc(-c3sc(N4CCN(C)CC4)nc3-c3cccc(NC(=O)c4c(F)cccc4F)c3)n2)cc1Cl` .
100 to 1000 nM

State the recorded IC50 for this entry: `CCc1nc(-c2cccc(NC(=O)c3c(F)cccc3F)c2)c(-c2ccnc(Nc3ccc(OCCN(C)C)c(Cl)c3)n2)s1`
100 to 1000 nM

----------
# Tested on: Colo205 tumor cells
# TEST_PROTOCOL: Method C: Cell Growth Inhibition Assay (CellTiter-Glo), Colo205
# Type: cell-based
# EXPERIMENTAL_CONTEXT: Homo sapiens, COLO 205, 72 h, 3 days, 4-parameter fit
pIC50: −log10 of the molar value. Where a name gives a salt, the structure may show the parent alone.
MEASURED_METRIC: pIC50

Please give the measured pIC50 for this molecule: CCc1nc(-c2cccc(NC(=O)c3c(F)cccc3F)c2)c(-c2ccnc(Nc3ccc(N4CCOCC4)nc3)n2)s1 [Example 118, trifluoroacetate]
< 6.00

Fill blank: measured pIC50 of the molecule `Cc1cccc(C(=O)Nc2cccc(-c3nc(C)sc3-c3ccnc(Nc4ccc(OCCN(C)C)c(Cl)c4)n3)c2)c1` is ____.
< 6.00

Can you share its pIC50? I mean this molecule: `CCc1nc(-c2cccc(NC(=O)c3c(F)cccc3F)c2)c(-c2ccnc(Nc3ccc(OCCN(C)C)c(F)c3)n2)s1`
6.00 to 7.00

Find the recorded pIC50 belonging to `Cc1nc(-c2cccc(NC(=O)c3cccc(C(F)(F)F)c3)c2)c(-c2ccnc(Nc3ccc4c(c3)CN(C)CC4)n2)s1` and report it.
< 6.00

What value of measured pIC50 is listed for `CN1CCc2ccc(Nc3nccc(-c4sc(NCCCN5CCOCC5)nc4-c4cccc(NC(=O)c5c(F)cccc5F)c4)n3)cc2C1` ?
6.00 to 7.00

What measured pIC50 goes with `Cc1nc(-c2cccc(NC(=O)c3cccc(Cl)c3)c2)c(-c2ccnc(Nc3ccc(OCCN(C)C)c(Cl)c3)n2)s1` ?
< 6.00

----------
# System: Colo205 tumor cells
# TEST_PROTOCOL: Method C: Cell Growth Inhibition Assay (CellTiter-Glo), Colo205
# Assay type: cell-based
# EXPERIMENTAL_CONTEXT: Homo sapiens, COLO 205, 72 h, 3 days, 4-parameter fit
Where a name gives a salt, the structure may show the parent alone.
MEASURED_METRIC: IC50

Lab request: please report IC50 under test system Colo205 tumor cells for `CN(C)CCOc1ccc(Nc2nccc(-c3sc(N(C)C)nc3-c3cccc(NC(=O)c4c(F)cccc4F)c3)n2)cc1`
100 to 1000 nM

// fetch Colo205 tumor cells IC50 for `CCc1nc(-c2cccc(NC(=O)c3c(F)cccc3F)c2)c(-c2ccnc(Nc3ccc(OCCN4CCCC4)c(F)c3)n2)s1`
> 1000 nM

Value wanted: IC50 (Colo205 tumor cells) of entry `CN1CCN(c2nc(-c3cccc(NC(=O)c4c(F)cccc4F)c3)c(-c3ccnc(Nc4cccc(CN5CCCC5)c4)n3)s2)CC1`
100 to 1000 nM

// lookup IC50 | system=Colo205 tumor cells | key= CN(C)c1nc(-c2cccc(NC(=O)c3c(F)cccc3F)c2)c(-c2ccnc(Nc3ccc(N4CCOCC4)c(Cl)c3)n2)s1 [Example 41, trifluoroacetate]
> 1000 nM

# value lookup — system Colo205 tumor cells, readout IC50, item `CN(C)CCOc1ccc(Nc2nccc(-c3sc(N)nc3-c3cccc(NC(=O)c4cc(F)ccc4F)c3)n2)cc1Cl`
100 to 1000 nM

# value lookup — system Colo205 tumor cells, readout IC50, item `CC(=O)Nc1nc(-c2cccc(NC(=O)c3c(F)cccc3F)c2)c(-c2ccnc(Nc3cccc(CN4CCCC4)c3)n2)s1`
100 to 1000 nM

Form: Entry = `CN1CCc2ccc(Nc3nccc(-c4sc(N(C)C)nc4-c4cccc(NC(=O)c5c(F)cccc5F)c4)n3)cc2C1` | System = Colo205 tumor cells | IC50 = ____
100 to 1000 nM

----------
# System: A375P F11s tumor cells
# TEST_PROTOCOL: Method C: Cell Growth Inhibition Assay (CellTiter-Glo), A375P F11s
# Type: cell-based
# EXPERIMENTAL_CONTEXT: Homo sapiens, 72 h, 3 days, 4-parameter fit
pIC50: −log10 of the molar value.
MEASURED_METRIC: pIC50

Any idea what pIC50 was measured for `Cc1nc(-c2cccc(NC(=O)c3c(F)cccc3F)c2)c(-c2ccnc(Nc3ccc(OC4CCN(C(C)C)CC4)c(F)c3)n2)s1` ?
6.00 to 7.00

# query: pIC50 of entry `Cc1nc(-c2cccc(NC(=O)c3c(F)cccc3F)c2)c(-c2ccnc(Nc3ccc(OC4CCNCC4)c(F)c3)n2)s1`
6.00 to 7.00

Look up pIC50 for this compound: `CN(C)CCOc1ccc(Nc2nccc(-c3sc(N)nc3-c3cccc(C(=O)Nc4c(F)cccc4F)c3)n2)cc1Cl`
6.00 to 7.00

Look at this compound and give its reported pIC50. `CNc1nc(-c2cccc(NC(=O)c3c(F)cccc3F)c2)c(-c2ccnc(Nc3cccc(CN4CCCC4)c3)n2)s1`
6.00 to 7.00

# query: pIC50 of entry `CN(C)CCOc1ccc(Nc2nccc(-c3sc(NCCCN4CCOCC4)nc3-c3cccc(NC(=O)c4c(F)cccc4F)c3)n2)cc1Cl`
6.00 to 7.00

----------
# System: Colo205 tumor cells
# TEST_PROTOCOL: Method C: Cell Growth Inhibition Assay (CellTiter-Glo), Colo205
# Assay type: cell-based
# EXPERIMENTAL_CONTEXT: Homo sapiens, COLO 205, 72 h, 3 days, 4-parameter fit
Where a name gives a salt, the structure may show the parent alone.
MEASURED_METRIC: IC50

Which IC50 reading was recorded for the compound CCNc1nc(-c2cccc(NC(=O)c3c(F)cccc3F)c2)c(-c2ccnc(Nc3ccc(CCN4CCCC4)c(F)c3)n2)s1 [Example 26, trifluoroacetate] ?
100 to 1000 nM

So what's the measured IC50 for this one? `CN(C)c1nc(-c2cccc(NC(=O)c3c(F)cccc3F)c2)c(-c2ccnc(Nc3ccc(OCCN4CCCC4)nc3)n2)s1`
100 to 1000 nM

Look up IC50: `CN(C)CCOc1cccc(Nc2nccc(-c3scnc3-c3cccc(NC(=O)c4c(F)cccc4F)c3)n2)c1`
100 to 1000 nM

Bench note: what IC50 did `CCc1nc(-c2cccc(NC(=O)c3c(F)cccc3F)c2)c(-c2ccnc(Nc3ccc(N4CCC(N5CCCCC5)CC4)c(F)c3)n2)s1` show?
100 to 1000 nM

# lookup: IC50 of `Cc1nc(-c2cccc(NC(=O)c3c(F)cccc3F)c2)c(-c2ccnc(Nc3cccc(OCCN(C)C)c3)n2)s1`
> 1000 nM

Dear colleague, I am looking for the recorded IC50 of the following compound: Cc1nc(-c2cccc(NC(=O)c3cccnc3F)c2)c(-c2ccnc(Nc3ccc4c(c3)CN(C)CC4)n2)s1 [Example 137, trifluoroacetate]
> 1000 nM

----------
Would you mind telling me the reported pIC50 of each entry?
# System: SK-MEL-28 tumor cells
# TEST_PROTOCOL: Method C: Cell Growth Inhibition Assay (CellTiter-Glo), SK-MEL-28
# Format: cell-based
# EXPERIMENTAL_CONTEXT: Homo sapiens, SK-MEL-28, 72 h, 3 days, 4-parameter fit
pIC50: −log10 of the molar value.

Endpoint output: pIC50 of Cc1nc(-c2cccc(NC(=O)Nc3ccc(Cl)c(C(F)(F)F)c3)c2)c(-c2ccnc(Nc3ccc4c(c3)CN(C)CC4)n2)s1 [Example 129] . Value?
< 6.00

Reported pIC50, compound CN(C)CCOc1ccc(Nc2nccc(-c3sc(N(C)C)nc3-c3cccc(NC(=O)c4c(F)cccc4F)c3)n2)cc1 [Example 36] : ____
< 6.00

Would you kindly share the measured pIC50 for O=C(Nc1cccc(-c2nc(CO)sc2-c2ccnc(Nc3ccc(OCCN4CCCC4)c(F)c3)n2)c1)c1c(F)cccc1F [Example 126] ?
6.00 to 7.00

Give the measured pIC50 of CN1CCc2ccc(Nc3nccc(-c4sc(CS(=O)(=O)C(C)(C)C)nc4-c4cccc(NC(=O)c5c(F)cccc5F)c4)n3)cc2C1 [Example 120] .
< 6.00
